- target: Carboxy-terminal domain RNA polymerase II polypeptide A small phosphatase 1 (Homo sapiens)
- Sequence (Q9GZU7 whole entry, the tested form may be a part): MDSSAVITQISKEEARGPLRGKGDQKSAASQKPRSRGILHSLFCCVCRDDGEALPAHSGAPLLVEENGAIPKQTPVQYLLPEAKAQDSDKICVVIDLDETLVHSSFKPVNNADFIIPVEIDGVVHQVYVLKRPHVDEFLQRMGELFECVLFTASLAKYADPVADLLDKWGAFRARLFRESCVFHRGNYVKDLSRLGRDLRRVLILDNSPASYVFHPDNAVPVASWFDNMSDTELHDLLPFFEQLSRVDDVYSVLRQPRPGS
- test details: CTDSP1 inhibitors, concentration-response, biochemical, absorbance readout, ultra-high-throughput screen actives (AID 540297)
- Type: functional
Calls of active or inactive are those of the source.
Consider the following compounds; for each one, report its IC50.

Ask: Consider the compound O=C1NC(=O)C(=Cc2ccc(SC3CCCCC3)o2)C(=O)N1 and give its measured IC50.
Result: 5.67 µM (active)

Ask: Now give it for Cc1c(CCC(=O)O)c(=O)oc2c(C)c3occ(-c4ccc(Br)cc4)c3cc12 too.
Result: 3.57 µM (active)

Ask: Now give it for COc1cccc(N2[C@@H](CC(=O)O)c3cc(C(F)(F)F)ccc3S2(=O)=O)c1 too.
Result: 5.53 µM (active)

Ask: Now give it for C/C=C\C=C\C(=O)N1CC2(CC(c3cccc(NC(=O)CC)c3)=NO2)C[C@H]1C(N)=O (stereo partly specified) too.
Result: 7.57 µM (active)

Ask: Now give it for CCOc1cc(/C=N/NC2=NC(=O)C(CC(=O)O)S2)ccc1OCc1ccc(Cl)cc1Cl (stereo unspecified) too.
Result: 2.32 µM (active)

Ask: Now give it for O=C(CCC1N=C2c3ccccc3N=C(SCC(=O)NCc3ccco3)N2C1=O)NCc1ccco1 (stereo unspecified) too.
Result: 5.31 µM (active)

Ask: Now give it for CS(=O)(=O)C1=NN2C(=N)/C(=C\c3ccc(OCCOc4ccccc4)cc3)C(=O)N=C2S1 too.
Result: 6.76 µM (active)

Ask: Now give it for COc1ccc(/C=C/C(=O)NC(=S)Nc2cc([N+](=O)[O-])ccc2O)cc1OC too.
Result: 4.85 µM (active)

Ask: Now give it for O=C(O)Cc1ccc(N=Nc2c(O)c(C(=O)O)cc3ccccc23)cc1 too.
Result: 3.6 µM (active)

Ask: Now give it for CN(C)C(=O)c1ccc(NC(=O)c2cc(-c3ccco3)nc3ccccc23)cc1 too.
Result: 7.55 µM (active)

Ask: Now give it for Cc1c(NS(=O)(=O)c2cc(C(=O)NCCN(C)C)ccc2Cl)c(=O)n(-c2ccccc2)n1C too.
Result: 9.93 µM (active)

====

- test details: loss of viability in HepG2 cells – cell-based, CellTiter-Glo, cherry-picked, cytotoxicity control for Shn3 inhibitor project, dose response (AID 624134)
- Format: functional
Active and inactive are the calls of the source.
The reply should name one outcome from active, inactive

Ask: For CCC1CCCCN1S(=O)(=O)c1ccc(NC(=O)c2ccncc2)cc1 (centres undefined) , which call appears in the assay record?
Result: active

Ask: Now give it for O=C(Nc1ccc([N+](=O)[O-])cc1)Nc1nc(-c2ccc(Cl)s2)cs1 too.
Result: active

Ask: Now give it for CC1=NOC(=O)/C1=C\c1ccc(-c2ccccc2Br)o1 too.
Result: inactive

Ask: Now give it for CC(CNC(=O)c1cc(COc2ccc3ncccc3c2)on1)c1ccccc1 (centres undefined) too.
Result: active

====

- target: 72 kDa type IV collagenase (Homo sapiens, UniProt P08253)
- Sequence (P08253 whole entry): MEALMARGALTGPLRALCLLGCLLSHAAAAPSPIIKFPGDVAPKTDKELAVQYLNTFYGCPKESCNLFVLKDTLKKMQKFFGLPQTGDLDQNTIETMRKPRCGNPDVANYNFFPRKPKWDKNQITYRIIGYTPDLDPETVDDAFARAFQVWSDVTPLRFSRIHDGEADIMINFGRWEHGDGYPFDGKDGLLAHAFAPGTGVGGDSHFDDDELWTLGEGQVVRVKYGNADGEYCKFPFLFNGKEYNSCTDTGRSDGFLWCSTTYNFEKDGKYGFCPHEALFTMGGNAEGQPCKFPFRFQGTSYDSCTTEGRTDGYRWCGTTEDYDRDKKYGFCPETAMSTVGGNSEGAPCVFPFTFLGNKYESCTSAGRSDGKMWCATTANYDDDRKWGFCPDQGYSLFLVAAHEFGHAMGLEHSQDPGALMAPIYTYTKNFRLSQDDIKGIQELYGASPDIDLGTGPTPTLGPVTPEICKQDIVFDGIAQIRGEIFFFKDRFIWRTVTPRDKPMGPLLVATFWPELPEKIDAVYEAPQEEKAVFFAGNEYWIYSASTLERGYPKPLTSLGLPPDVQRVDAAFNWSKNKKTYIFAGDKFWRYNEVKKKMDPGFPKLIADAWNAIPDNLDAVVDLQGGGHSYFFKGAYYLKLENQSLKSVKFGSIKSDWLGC
- test details: Dose Response validation of uHTS RPN11 inhibitor hits using a MMP-2 Fluorescence assay.
- Assay type: functional
The source made the active and inactive calls.
The reply should name one outcome from active, inactive

Ask: For O=C(N/N=C/c1cc([N+](=O)[O-])ccc1O)c1cc(-c2ccccc2)nc2ccccc12 , which call appears in the assay record?
Result: inactive

Ask: Now give it for CCOc1cc(/C=C2\SC(=S)N(NC(=O)c3cccnc3)C2=O)ccc1O too.
Result: inactive

Ask: Now give it for Cc1cc(C)c2c(N)c(C(=O)N/N=C/c3cccs3)sc2n1 too.
Result: inactive

Ask: Now give it for O=C(/C=C/c1ccco1)Nc1cccc(C(=O)Nc2ccccc2C(=O)O)c1 too.
Result: active
